The origin of these recorded values is paper doi:10.1101/2024.08.19.608619.

experiment: Protein binding; assay type: in vitro ADME; settings: rat, plasma, In vitro rat plasma protein binding
value.kind: fraction unbound

# fraction unbound (compound: CC(C)C(Nc1ncnc2[nH]c(C(=O)NC3CCN(C)C3)cc12)c1ccc2c(c1)S(=O)(=O)CCC2 (stereo not shown) [ASAP-0011198] ) is 0.125

---

Recorded clint, one value per entry.
experiment: In vitro dog hepatocyte stability; format: in vitro ADME
Unit uL/min/1E6 cells implied. Number only.

CC(C)[C@@H](Nc1ncnc2[nH]c(-c3cnn(C)c3C#N)cc12)c1ccc2c(n1)OCCO2 ... 3.91
CC(C)[C@H](Nc1ncnc2[nH]c(-c3cnn(C)c3C#N)cc12)c1ccc2c(n1)OCCO2 ... 3.01

# clint (compound: Cn1ncc(-c2cc3c(N[C@@H](c4ccc5c(n4)OCCO5)C(C)(C)C)ncnc3[nH]2)c1C#N ) is 3.81

# clint (compound: CNCc1cc(-c2cc3c(N[C@@H](c4ccc5c(c4)S(=O)(=O)CCC5)C(C)C)ncnc3[nH]2)co1 ) is 7.3
